The sequences listed here are annotated with their phosphorylation enrichment.
Test system: c-Abl (mouse)
Assay: phosphorylation enrichment, bacterial display (enrichment ratio); higher = better substrate or ligand; peptides without Tyr show the background;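 also: 11-residue human phosphosite peptides and single-mutation variants displayed on the E. coli surface, counted by deep sequencing, each peptide's frequency after selection divided by its frequency in the unselected input library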;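 also: frequency after pTyr selection over input frequency; kinase dosed for 20-30% of maximal phosphorylation in three min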
Lab note: record just the number, no unit beside it.

biosequence	system name	phosphorylation enrichment
LANNEYFFQVC	c-Abl (mouse)	1.74

[Q] Name the reported phosphorylation enrichment value associated with the sequence ARIVDYNIIGW [MYH7_Y588_G584R]
[A] 0.561

[Q] Continue with LAVNPYGPPDP
[A] 0.726

[Q] Item: NHFKIYNLCAE [PTEN_Y68_YF]
[A] 0.52

[Q] Repeat for the following sequence: AEQEEYSAMRD [NRAS_Y64_G60E]
[A] 0.802

[Q] Please give the result for LRRREYQRQDY [PRKRIP1_Y90] too.
[A] 0.554

[Q] Please do the same for HICTAYKLVLA [DHCR24_Y190_E191K] as well.
[A] 0.969

[Q] Try this sequence next: MKALGYFAVGT [OPA1_Y498_V502G]
[A] 0.7

[Q] # repeat for CWAVKYLQMVG [AVPR2_Y117_R113W]
[A] 0.817

---

Target: FGFR1 (UniProt P11362)
Sequence (P11362 whole entry, looked up): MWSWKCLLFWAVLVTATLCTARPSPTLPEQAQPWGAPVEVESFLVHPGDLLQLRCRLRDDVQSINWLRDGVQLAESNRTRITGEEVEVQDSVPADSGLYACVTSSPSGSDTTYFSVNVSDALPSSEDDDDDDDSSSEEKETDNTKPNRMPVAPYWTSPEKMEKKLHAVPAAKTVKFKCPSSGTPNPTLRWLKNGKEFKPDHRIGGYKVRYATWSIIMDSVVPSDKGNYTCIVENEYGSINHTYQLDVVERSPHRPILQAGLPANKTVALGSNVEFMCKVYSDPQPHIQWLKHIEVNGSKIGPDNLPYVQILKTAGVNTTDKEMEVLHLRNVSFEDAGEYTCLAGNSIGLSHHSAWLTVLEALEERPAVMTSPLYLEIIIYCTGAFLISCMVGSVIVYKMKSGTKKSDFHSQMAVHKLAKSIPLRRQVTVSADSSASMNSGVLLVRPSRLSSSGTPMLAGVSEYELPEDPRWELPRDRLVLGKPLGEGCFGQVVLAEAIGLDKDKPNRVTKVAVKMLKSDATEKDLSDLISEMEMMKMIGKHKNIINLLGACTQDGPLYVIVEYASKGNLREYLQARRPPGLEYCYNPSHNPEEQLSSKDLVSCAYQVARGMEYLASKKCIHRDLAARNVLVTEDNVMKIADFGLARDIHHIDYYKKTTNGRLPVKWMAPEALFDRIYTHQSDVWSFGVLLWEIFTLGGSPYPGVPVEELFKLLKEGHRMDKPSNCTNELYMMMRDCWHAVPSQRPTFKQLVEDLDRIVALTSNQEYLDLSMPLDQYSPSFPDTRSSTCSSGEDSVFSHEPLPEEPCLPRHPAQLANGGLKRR
Test: phosphorylation enrichment, bacterial display (enrichment ratio); higher = better substrate or ligand; peptides without Tyr show the background
Recorded phosphorylation enrichment, one value per entry.
Please respond with just the number, no unit label.

As a guide, the following entries are already answered.
biosequence	measurement type	val
TNFSLYLRSLE [MTM1_Y71_R69S_YF]	phosphorylation enrichment	0.41
PGGNIYISPLK [RB1_Y805]	phosphorylation enrichment	0.545
GGFTWYCDGKK [PROS1_Y266_C265W_YF]	phosphorylation enrichment	0.432
PTTKTYFPHFA [HBA1_Y43_D48A]	phosphorylation enrichment	0.313
MGSYNYLGFPR [SPTLC2_Y178_A182P]	phosphorylation enrichment	2.29
LVSCTYQLARG [FGFR2_Y608]	phosphorylation enrichment	0.452
ITLKGYNLSNS [GNPTAB_Y728_K732N]	phosphorylation enrichment	0.525
VNFDFYTVNLG [GFPT1_Y367_D366Y_YF]	phosphorylation enrichment	0.593

[Q] I'd like to know its phosphorylation enrichment. The sequence in question is IITDFYVDMKF [MPP4_Y567_V562I_YF]
[A] 1.37

[Q] Then what about the sequence DAVAVYDGKIS [SH2D1A_Y7_H8D] ?
[A] 0.44

[Q] Next sequence up: KASGKYFAMKI [AKT3_Y173_YF]
[A] 0.347

[Q] What do we get for FQGGTYSKACT [FGG_Y380_S384C_YF] ?
[A] 0.448

[Q] Quick one: ALHRPYGCDVE [ABL2_Y80]
[A] 0.412

[Q] And DGMADCSDPSF [CDC5L_Y459_Y459C_YF] ?
[A] 0.533

---

Target: EPHB2 (UniProt P29323)
Sequence (P29323 whole entry, looked up): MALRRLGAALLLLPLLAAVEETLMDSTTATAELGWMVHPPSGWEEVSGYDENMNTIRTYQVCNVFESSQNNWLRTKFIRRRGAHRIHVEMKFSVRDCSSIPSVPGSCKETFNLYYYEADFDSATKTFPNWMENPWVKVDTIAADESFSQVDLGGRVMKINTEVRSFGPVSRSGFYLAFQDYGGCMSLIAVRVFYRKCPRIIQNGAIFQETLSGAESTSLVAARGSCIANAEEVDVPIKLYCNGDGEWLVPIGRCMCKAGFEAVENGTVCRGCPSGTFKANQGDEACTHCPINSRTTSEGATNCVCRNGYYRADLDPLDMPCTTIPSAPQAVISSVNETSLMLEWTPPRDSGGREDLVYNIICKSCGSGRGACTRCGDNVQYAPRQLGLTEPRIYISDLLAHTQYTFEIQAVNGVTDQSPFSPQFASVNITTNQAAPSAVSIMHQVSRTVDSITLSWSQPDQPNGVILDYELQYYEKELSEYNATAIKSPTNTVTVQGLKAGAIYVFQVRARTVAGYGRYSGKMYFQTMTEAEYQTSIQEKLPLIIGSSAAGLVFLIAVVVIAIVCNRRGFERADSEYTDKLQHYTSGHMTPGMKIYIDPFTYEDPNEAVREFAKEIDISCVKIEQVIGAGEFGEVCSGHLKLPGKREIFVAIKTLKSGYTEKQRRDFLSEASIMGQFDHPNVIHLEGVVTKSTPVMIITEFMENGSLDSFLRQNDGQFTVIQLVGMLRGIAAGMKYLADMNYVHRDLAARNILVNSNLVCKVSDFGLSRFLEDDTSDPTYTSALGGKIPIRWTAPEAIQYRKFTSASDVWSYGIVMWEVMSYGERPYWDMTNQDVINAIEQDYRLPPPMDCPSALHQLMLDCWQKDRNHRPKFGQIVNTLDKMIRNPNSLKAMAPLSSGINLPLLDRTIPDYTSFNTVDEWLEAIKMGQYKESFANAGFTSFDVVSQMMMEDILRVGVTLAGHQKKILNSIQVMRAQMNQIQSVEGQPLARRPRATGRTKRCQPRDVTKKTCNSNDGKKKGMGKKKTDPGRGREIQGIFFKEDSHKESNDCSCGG
Assay: phosphorylation enrichment, bacterial display (enrichment ratio); higher = better substrate or ligand; peptides without Tyr show the background
Could you label it MET if measured phosphorylation enrichment is 0.6 or higher, and NOT MET otherwise?

Below, 10 sequences whose answers are already recorded.
biosequence	qualitative label
EFKDAYKFAAD [BRDT_Y335_YF]	NOT MET
PTDSVYVMPTV [MYO7A_Y1668]	MET
LFMGDYVDRGY [PPP2CA_Y86]	MET
SFPSYYTSHVQ [NEFL_Y443]	MET
DAVKHYMQFRK [CNGA2_Y395]	NOT MET
PESCFYKESWL [IQGAP2_Y630_L629F]	MET
FSNPAYFVLEG [INPPL1_Y986_N982S_YF]	NOT MET
MRNDLYQTPLH [NFKB1_Y582]	MET
LFHENYNAGTF [CFI_Y421_I416L_YF]	MET
LGGAMYYLEAD [PKHD1_Y452_E457D]	MET

[Q] Evaluate QKMADYSNKLH [PDPR_Y104_Y109H] : phosphorylation enrichment at minimum 0.6?
[A] MET

[Q] Also, YRRITYYNWRH [PDE6B_Y556_H557Y] please.
[A] NOT MET
